Taken from PubChem BioAssay (EPA / NIEHS).

# Read-out: Interleukin-8 (IL8), CXCL8 (gene 3576)
# Run description: BSK_CASM3C_IL8: BioMAP Diversity Plus: CASM3C Assay for Interleukin-8 (IL8) Biomarker Activity (AID 2283042);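 also: IL-8 protein level quantified by ELISA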
# Setup conditions: primary human coronary artery smooth muscle cells; actives raise or lower the signal
Calls of active or inactive are those of the source. The calls were made as follows: active = hit-call score of the fitted dose curve at least 0.9, where 1 is the maximum; inactive = score below 0.9.
Classes used: 1.0 (active), 0.0 (inactive)

- Compound: "O=[N+]([O-])c1cc(C(F)(F)F)ccc1Cl"
  Answer label: 0.0
- Compound: "CNC[C@H](O)c1cccc(O)c1"
  Answer label: 0.0
- Compound: "CCC(=O)OCc1ccccc1"
  Answer label: 0.0
- Compound: "COc1cc(C=O)ccc1OC(=O)C(C)C"
  Answer label: 0.0
- Compound: "Cc1ccc2n[nH]nc2c1"
  Answer label: 0.0
- Compound: "CN(CCOc1ccc(CC2SC(=O)NC2=O)cc1)c1ccccn1 (configuration not stated)"
  Answer label: 0.0
- Compound: "CCCCC(CC)COCCC#N (configuration not stated)"
  Answer label: 0.0
- Compound: "CC1COc2ccccc2N1C(=O)C(Cl)Cl (configuration not stated)"
  Answer label: 0.0
- Compound: "CCCCCCCCC=O"
  Answer label: 0.0
- Compound: "O=C=NC1CCC(CC2CCC(N=C=O)CC2)CC1 (configuration not stated)"
  Answer label: 0.0
- Compound: "Cc1cc(C2(c3cc(C)c(O)cc3C)OS(=O)(=O)c3ccccc32)c(C)cc1O"
  Answer label: 0.0
- Compound: "CC(=O)/C=C/C1=C(C)CCCC1(C)C"
  Answer label: 0.0
- Compound: "c1ccc2c(c1)c1cccc3ccc4cccc2c4c31"
  Answer label: 0.0
- Compound: "O=C(O)c1ccc([N+](=O)[O-])cc1"
  Answer label: 0.0
- Compound: "CC1CCC(C(C)CS)CC1S (configuration not stated)"
  Answer label: 1.0
- Compound: "N#Cc1ccc(CC(=NNC(=O)Nc2ccc(OC(F)(F)F)cc2)c2cccc(C(F)(F)F)c2)cc1"
  Answer label: 0.0
- Compound: "CCCCCCCCCC=O"
  Answer label: 0.0

* * *

# Assay system: Nuclear receptor subfamily 1 group I member 2 (Homo sapiens) (UniProt O75469)
# Sequence (O75469 whole entry, looked up): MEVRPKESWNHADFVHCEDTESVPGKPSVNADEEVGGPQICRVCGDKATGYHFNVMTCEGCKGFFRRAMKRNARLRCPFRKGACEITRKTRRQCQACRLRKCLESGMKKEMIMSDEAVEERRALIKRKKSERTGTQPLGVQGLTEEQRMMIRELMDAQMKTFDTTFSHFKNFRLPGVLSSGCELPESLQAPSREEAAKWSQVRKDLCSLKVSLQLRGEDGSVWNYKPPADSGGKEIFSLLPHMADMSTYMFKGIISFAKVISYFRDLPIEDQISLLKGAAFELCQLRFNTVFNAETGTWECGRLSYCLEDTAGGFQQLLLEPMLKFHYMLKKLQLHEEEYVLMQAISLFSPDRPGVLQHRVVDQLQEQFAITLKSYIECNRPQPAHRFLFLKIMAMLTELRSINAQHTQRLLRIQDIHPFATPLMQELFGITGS
# Run description: ATG_PXR_TRANS: Attagene TRANS-FACTORIAL HepG2 Assay for human Pregnane X Receptor (PXR) (AID 2283008)
Records with an inconclusive call do not appear. The source made the active and inactive calls. How the source made its calls: active means hit-call score of the fitted dose curve at least 0.9, where 1 is the maximum; inconclusive means response in the unintended direction; inactive means score below 0.9.

- Compound: "O=C(COc1ccc(Cl)cc1)N1CCN(Cc2ccc3c(c2)OCO3)CC1"
  AC50: "inactive"
- Compound: "Cc1ccccc1C=O"
  AC50: "20.9 µM (active)"
- Compound: "COCCCOc1ccnc(CS(=O)c2nc3ccccc3[nH]2)c1C (stereo unspecified)"
  AC50: "4.77 µM (active)"
- Compound: "CCCCCOC(=O)CCC"
  AC50: "inactive"
- Compound: "Nc1nc2ccc([N+](=O)[O-])cc2s1"
  AC50: "inactive"
- Compound: "C=CCOC(=O)CCC1CCCCC1"
  AC50: "inactive"
- Compound: "C=C(C)C1CCC(C)CC1O (stereo unspecified)"
  AC50: "inactive"
- Compound: "CCCC(=O)C(C)=O"
  AC50: "inactive"
- Compound: "O=[N+]([O-])c1cc(C(F)(F)F)ccc1Cl"
  AC50: "inactive"
- Compound: "CC(=O)[O][Al][O]C(C)=O"
  AC50: "inactive"
- Compound: "CC(C)[C@@H]1CC[C@@H](C)CC1=O"
  AC50: "inactive"
